target: Full length human recombinant PIKFYVE (Homo sapiens); construct: Full length human recombinant PIKFYVE; assay: Inhibition of PIKfyve (microfluidic electrophoresis kinase assay, PI3P/PS substrate); details: 12 concentrations
measured_parameter: IC50 (nM)

1) Cc1cccc(-c2cnn(-c3nc(N4CCOCC4)c4oc(C(=O)NC5CCCN(C)CC5)cc4n3)c2)c1 (stereo not shown): 11.8
2) O=C(NC1COC1)c1cc2nc(-n3ccc(-c4ccccc4)n3)nc(N3CCOCC3)c2o1: 4010
3) CCNC(=O)c1cc2nc(-n3ccc(-c4ccccc4)n3)nc(N3CCOCC3)c2o1: 306
4) Cc1cccc(-c2cnn(-c3nc(N4CCOCC4)c4oc(C(=O)NC5CCN(C)CC5)cc4n3)c2)c1: 1.2

----------
target: Full length human recombinant PIKFYVE (Homo sapiens, UniProt Q9Y2I7); construct: Full length human recombinant PIKFYVE; assay: Inhibition of PIKfyve (microfluidic electrophoresis kinase assay, PI3P/PS substrate); details: 12 concentrations
Sequence (Q9Y2I7 whole entry): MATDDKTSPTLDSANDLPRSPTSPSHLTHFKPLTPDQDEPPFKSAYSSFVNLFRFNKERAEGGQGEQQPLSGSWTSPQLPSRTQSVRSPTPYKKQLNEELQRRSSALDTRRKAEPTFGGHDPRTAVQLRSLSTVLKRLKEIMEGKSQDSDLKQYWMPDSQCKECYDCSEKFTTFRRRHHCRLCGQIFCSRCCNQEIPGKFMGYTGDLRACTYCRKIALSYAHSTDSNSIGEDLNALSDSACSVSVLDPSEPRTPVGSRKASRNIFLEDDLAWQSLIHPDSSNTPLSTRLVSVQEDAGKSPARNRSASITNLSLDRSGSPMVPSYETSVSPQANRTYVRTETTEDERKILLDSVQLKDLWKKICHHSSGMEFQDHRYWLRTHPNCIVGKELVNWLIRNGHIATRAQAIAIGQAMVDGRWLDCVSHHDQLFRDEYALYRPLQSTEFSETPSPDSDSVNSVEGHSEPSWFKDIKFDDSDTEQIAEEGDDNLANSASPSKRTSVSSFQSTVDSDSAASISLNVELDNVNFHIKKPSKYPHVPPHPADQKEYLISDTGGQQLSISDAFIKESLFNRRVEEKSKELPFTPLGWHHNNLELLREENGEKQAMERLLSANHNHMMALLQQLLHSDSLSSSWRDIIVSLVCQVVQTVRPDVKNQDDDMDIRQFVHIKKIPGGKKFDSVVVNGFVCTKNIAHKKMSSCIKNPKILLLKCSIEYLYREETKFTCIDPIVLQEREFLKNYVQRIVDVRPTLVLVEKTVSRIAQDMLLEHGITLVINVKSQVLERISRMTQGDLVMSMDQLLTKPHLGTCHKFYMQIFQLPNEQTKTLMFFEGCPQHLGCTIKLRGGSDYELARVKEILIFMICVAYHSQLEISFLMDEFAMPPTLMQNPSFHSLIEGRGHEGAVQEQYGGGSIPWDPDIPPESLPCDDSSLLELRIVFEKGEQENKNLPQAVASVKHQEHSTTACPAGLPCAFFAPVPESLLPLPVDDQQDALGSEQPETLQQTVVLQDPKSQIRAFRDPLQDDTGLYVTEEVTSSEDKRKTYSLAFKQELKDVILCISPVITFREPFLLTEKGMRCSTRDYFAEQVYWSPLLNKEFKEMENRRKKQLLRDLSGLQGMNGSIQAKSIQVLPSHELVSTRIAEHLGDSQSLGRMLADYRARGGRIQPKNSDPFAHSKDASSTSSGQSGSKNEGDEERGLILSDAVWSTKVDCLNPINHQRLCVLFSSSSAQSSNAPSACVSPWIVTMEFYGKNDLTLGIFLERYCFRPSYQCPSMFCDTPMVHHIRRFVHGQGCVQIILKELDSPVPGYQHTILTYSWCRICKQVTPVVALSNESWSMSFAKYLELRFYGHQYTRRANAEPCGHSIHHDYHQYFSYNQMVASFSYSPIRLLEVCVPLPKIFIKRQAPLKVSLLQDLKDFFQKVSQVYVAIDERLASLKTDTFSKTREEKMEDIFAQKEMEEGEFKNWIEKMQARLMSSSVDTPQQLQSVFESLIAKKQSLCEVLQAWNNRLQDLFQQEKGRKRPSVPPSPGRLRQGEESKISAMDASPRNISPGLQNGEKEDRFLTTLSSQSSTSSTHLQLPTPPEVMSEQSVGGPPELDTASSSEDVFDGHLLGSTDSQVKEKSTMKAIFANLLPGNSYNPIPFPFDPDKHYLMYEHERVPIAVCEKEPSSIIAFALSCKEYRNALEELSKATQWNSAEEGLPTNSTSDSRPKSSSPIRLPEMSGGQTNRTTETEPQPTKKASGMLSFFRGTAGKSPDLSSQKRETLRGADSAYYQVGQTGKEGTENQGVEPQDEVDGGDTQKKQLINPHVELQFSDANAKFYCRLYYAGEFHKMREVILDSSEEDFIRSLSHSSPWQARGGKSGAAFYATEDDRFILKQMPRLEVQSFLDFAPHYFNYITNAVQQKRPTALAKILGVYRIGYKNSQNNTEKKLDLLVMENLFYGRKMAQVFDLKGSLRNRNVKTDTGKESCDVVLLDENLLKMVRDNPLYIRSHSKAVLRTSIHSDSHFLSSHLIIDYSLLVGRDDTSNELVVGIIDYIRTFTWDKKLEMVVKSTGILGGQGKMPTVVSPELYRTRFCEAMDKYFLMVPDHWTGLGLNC
pIC50: −log10 of the molar value.
measured_parameter: pIC50

1) O=C(NC1CC1)c1cc2nc(-n3ccc(-c4ccccc4)n3)nc(N3CCOCC3)c2o1: 7.62
2) c1ccc(Cc2cc(Nc3nc(N4CCOCC4)c4oc(-c5ccncc5)cc4n3)[nH]n2)cc1: 6.85
3) c1ccc(-c2cnn(-c3nc(N4CCOCC4)c4oc(-c5ccncc5)cc4n3)c2)cc1: 7.47
4) CN1CCCC(NC(=O)c2cc3nc(-n4cc(-c5ccccc5)cn4)nc(N4CCOCC4)c3o2)CC1 (stereo not shown): 7.33
5) Cc1cccc(-c2cnn(-c3nc(N4CCOCC4)c4oc(-c5cc(C)n(CCN6C(=O)C=CC6=O)n5)cc4n3)c2)c1: 8.85
6) Cc1cccc(-c2cc(Nc3nc(N4CCOCC4)c4occc4n3)[nH]n2)c1: 7.23
7) CNC(=O)c1cc2nc(Nc3cc(-c4ccccc4)[nH]n3)nc(N3CCOCC3)c2o1: 7.48
8) COc1cccc(-c2cc(Nc3nc(N4CCOCC4)c4oc(-c5ccncc5)cc4n3)[nH]n2)c1: 7.22
9) Cc1cccc(-c2ccn(-c3nc(N4CCOCC4)c4oc(C(=O)NCCCCN(C)C)cc4n3)n2)c1: 7.63
10) c1ccc(-c2ccn(-c3nc(N4CCOCC4)c4oc(-c5nccs5)cc4n3)n2)cc1: 8.18
11) Cc1cccc(-c2ccn(-c3nc(N4CCOCC4)c4oc(C(=O)NC5COC5)cc4n3)n2)c1: 7.39
12) CN(C)C(=O)c1cc2nc(Nc3cc(-c4ccccc4)[nH]n3)nc(N3CCOCC3)c2o1: 7.02
13) Cc1cccc(-c2ccn(-c3nc(N4CCOCC4)c4oc(-c5ccn(C)n5)cc4n3)n2)c1: 9.10
14) Cc1cc(-c2cc3nc(-n4ccc(-c5ccccc5)n4)nc(N4CCOCC4)c3o2)nn1CCN(C)C: 7.38
15) Cc1cccc(-c2cnn(-c3nc(N4CCOCC4)c4oc(C(=O)NCCCN(C)C)cc4n3)c2)c1: 8.51
16) c1ccc(-n2ccc(Nc3nc(N4CCOCC4)c4oc(-c5ccncc5)cc4n3)n2)cc1: 7.49

----------
biological target: PI3Kα (Homo sapiens, UniProt P42336); construct: Full-length N-terminal; FLAG (N); assay: Inhibition of PI3K isoforms: PI3Kα (microfluidic electrophoresis kinase assay, PIP2/PS substrate); settings: p110α/p85α, ATP 90 μM; read-out: PI3Ka IC50
Sequence (P42336 whole entry, canonical isoform): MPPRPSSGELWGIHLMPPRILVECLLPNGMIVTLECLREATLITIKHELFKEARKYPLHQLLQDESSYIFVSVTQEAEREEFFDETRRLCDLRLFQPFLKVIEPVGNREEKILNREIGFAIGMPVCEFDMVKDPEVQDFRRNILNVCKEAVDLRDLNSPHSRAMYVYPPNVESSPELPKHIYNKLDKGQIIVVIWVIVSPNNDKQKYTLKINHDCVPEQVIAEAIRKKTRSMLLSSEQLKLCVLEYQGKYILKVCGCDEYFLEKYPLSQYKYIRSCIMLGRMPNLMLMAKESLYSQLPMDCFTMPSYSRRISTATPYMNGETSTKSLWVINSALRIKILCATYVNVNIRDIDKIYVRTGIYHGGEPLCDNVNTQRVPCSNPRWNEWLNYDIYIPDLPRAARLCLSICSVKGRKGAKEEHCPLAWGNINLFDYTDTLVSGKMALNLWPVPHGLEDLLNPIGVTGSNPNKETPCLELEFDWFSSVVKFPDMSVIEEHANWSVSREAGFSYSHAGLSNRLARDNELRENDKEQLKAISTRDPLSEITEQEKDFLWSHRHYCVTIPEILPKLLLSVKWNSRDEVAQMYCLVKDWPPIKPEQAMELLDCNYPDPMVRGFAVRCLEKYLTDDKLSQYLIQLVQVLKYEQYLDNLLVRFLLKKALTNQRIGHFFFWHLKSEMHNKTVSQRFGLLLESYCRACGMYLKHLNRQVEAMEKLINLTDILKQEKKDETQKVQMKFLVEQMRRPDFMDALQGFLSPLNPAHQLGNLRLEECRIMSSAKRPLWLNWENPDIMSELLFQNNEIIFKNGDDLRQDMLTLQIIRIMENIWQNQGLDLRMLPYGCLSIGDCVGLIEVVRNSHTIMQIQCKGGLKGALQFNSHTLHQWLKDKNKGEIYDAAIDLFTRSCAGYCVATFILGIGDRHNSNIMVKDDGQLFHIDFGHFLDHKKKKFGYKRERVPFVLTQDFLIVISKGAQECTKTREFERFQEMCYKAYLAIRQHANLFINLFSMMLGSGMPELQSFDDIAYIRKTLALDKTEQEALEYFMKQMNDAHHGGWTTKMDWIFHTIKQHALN
Sequence (P27986 whole entry partner, canonical isoform): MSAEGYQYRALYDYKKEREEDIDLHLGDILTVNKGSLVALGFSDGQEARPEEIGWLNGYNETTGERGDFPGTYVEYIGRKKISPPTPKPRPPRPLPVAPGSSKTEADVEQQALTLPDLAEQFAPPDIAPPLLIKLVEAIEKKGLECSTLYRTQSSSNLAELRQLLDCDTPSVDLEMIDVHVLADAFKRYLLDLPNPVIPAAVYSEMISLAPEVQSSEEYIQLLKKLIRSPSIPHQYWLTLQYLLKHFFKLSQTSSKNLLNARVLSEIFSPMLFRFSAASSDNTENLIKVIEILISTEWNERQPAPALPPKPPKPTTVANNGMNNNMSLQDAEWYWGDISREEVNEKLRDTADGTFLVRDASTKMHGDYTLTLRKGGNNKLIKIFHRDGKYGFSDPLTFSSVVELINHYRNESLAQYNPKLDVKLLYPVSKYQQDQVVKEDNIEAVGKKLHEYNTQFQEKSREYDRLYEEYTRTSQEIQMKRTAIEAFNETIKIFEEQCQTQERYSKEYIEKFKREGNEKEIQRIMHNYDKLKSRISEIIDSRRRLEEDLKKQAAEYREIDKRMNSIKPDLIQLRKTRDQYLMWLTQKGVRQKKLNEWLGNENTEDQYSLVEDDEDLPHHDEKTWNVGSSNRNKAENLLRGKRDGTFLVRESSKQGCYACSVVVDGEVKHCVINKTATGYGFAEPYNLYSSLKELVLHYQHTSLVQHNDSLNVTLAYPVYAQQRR
Counter-ions that a name gives are not always drawn.
Entries annotated with measured IC50
measured_parameter: IC50

1) CNC(=O)c1cc2nc(Nc3cc(C4CCC4)n[nH]3)nc(N3CCOCC3)c2o1: 5.52 µM
2) CNC(=O)c1cc2nc(Nc3cc(CC4CCCC4)n[nH]3)nc(N3CCOCC3)c2o1: 4.53 µM
3) CCc1cc(Nc2nc(N3CCOCC3)c3oc(C(=O)NC)cc3n2)[nH]n1: 3.48 µM
4) c1cc(-c2cc3nc(Nc4cc(C5CCC5)n[nH]4)nc(N4CCOCC4)c3o2)ccn1: 4.14 µM
5) CNC(=O)c1cc2nc(Nc3cc(C4CCCC4)n[nH]3)nc(N3CCOCC3)c2o1: 3.72 µM
6) c1ccc(-c2cc(Nc3nc(N4CCOCC4)c4oc(-c5ccncc5)cc4n3)[nH]n2)cc1 [Compound 1, hydrochloride]: 6.78 µM

----------
Biological target: Full length human recombinant PIKFYVE (Homo sapiens)
Construct: Full length human recombinant PIKFYVE
Assay: Inhibition of PIKfyve (microfluidic electrophoresis kinase assay, PI3P/PS substrate)
Conditions: 12 concentrations
Experimental: Full length human recombinant PIKFYVE expressed in baculovirus expression system as N-terminal GST-fusion protein (265 kDa) was obtained from Carna Biosciences (Kobe, Japan). […] The kinase reactions were assembled in 384-well plates (Greiner) in a total volume of 20 mL as follows. […] Terminated plates were analyzed on a microfluidic electrophoresis instrument (Caliper LabChip® 3000, Caliper Life Sciences/Perkin Elmer). […] Percent inhibition (Pinh) was determined using the following equation: […]
pIC50: −log10 of the molar value. Where a name gives a salt, the structure may show the parent alone.
Classification field: enter t for pIC50 values not below 8, f for values below it.

1. c1ccc(-c2cnn(-c3nc(N4CCOCC4)c4oc(-c5cccnc5)cc4n3)c2)cc1: f
2. CN1CCC(c2cc3nc(Nc4cc(-c5ccccc5)n[nH]4)nc(N4CCOCC4)c3o2)CC1: f
3. Cc1cccc(-c2cc(Nc3nc(N4CCOCC4)c4oc(C5CCCN(C)C5)cc4n3)[nH]n2)c1 (centres unmarked): f
4. Cc1ccc(-c2cc(Nc3nc(N4CCOCC4)c4oc(-c5ccncc5)cc4n3)[nH]n2)cc1: f
5. Cc1cccc(-c2cnn(-c3nc(N4CCOCC4)c4oc(C(=O)N[C@@H](C)C5CC5)cc4n3)c2)c1: t
6. Cc1cccc(-c2cc(Nc3nc(N4CCOCC4)c4oc(C5CCN(C)C5)cc4n3)[nH]n2)c1 (centres unmarked) [Compound 39, hydrochloride]: f

----------
biological target: Full length human recombinant PIKFYVE (Homo sapiens, UniProt Q9Y2I7); construct: Full length human recombinant PIKFYVE; assay: Inhibition of PIKfyve (microfluidic electrophoresis kinase assay, PI3P/PS substrate); conditions: 12 concentrations
pIC50: −log10 of the molar value. Structures can show the parent of a compound that is named as a salt.
Entries are grouped by pIC50 into these classes: bucket A (below 7), bucket B (7 to below 8), bucket C (8 or more)

1) CCN(C)C(=O)c1cc2nc(Nc3cc(-c4ccccc4)[nH]n3)nc(N3CCOCC3)c2o1: bucket B
2) CN(CC1CC1)C(=O)c1cc2nc(-n3cc(-c4ccccc4)cn3)nc(N3CCOCC3)c2o1: bucket A
3) [2H]C1([2H])OC([2H])([2H])C([2H])([2H])N(c2nc(-n3cc(-c4cccc(C)c4)cn3)nc3cc(-c4cccnc4)oc23)C1([2H])[2H]: bucket B
4) Cc1cccc(-c2cnn(-c3nc(N4CCOCC4)c4oc(C(=O)NC5CC5)c(C)c4n3)c2)c1: bucket B
5) Cc1cccc(-c2cnn(-c3nc(N4CCOCC4)c4oc(C(=O)NCC5COC5)cc4n3)c2)c1: bucket C
6) O=C(NCC1COC1)c1cc2nc(-n3ccc(-c4ccccc4)n3)nc(N3CCOCC3)c2o1: bucket A
7) Cc1cccc(-c2ccn(-c3nc(N4CCOCC4=O)c4oc(-c5ccccn5)cc4n3)n2)c1: bucket A
8) c1csc(-c2cc(Nc3nc(N4CCOCC4)c4oc(-c5ccncc5)cc4n3)[nH]n2)c1: bucket C
9) CCNC(=O)c1cc2nc(-n3cc(-c4cccc(C)c4)cn3)nc(N3CCOCC3=O)c2o1: bucket A
10) Cc1cc(-c2ccn(-c3nc(N4CCOCC4)c4oc(-c5ccccn5)cc4n3)n2)ccn1: bucket A
11) CON(C)C(=O)c1cc2nc(Nc3cc(-c4ccccc4)[nH]n3)nc(N3CCOCC3)c2o1: bucket B
12) c1ccc(-c2ccn(-c3nc(N4CCOCC4)c4oc(-c5ncco5)cc4n3)n2)cc1: bucket B
13) Cc1cccc(-c2cc(Nc3nc(N4CCOCC4)c4oc(-c5cccnc5)cc4n3)[nH]n2)c1: bucket C
14) Cc1cccc(-c2ccn(-c3nc(N4CCOCC4)c4oc(-c5cc(C)n(CCN(C)C)n5)cc4n3)n2)c1: bucket C
15) Cc1cc(-c2cc(Nc3nc(N4CCOCC4)c4oc(-c5ccncc5)cc4n3)[nH]n2)ccn1 [Compound 22, hydrochloride]: bucket B
16) Cn1ccc(-c2cc3nc(-n4ccc(Br)n4)nc(N4CCOCC4)c3o2)n1: bucket A
17) Cc1cccc(-c2ccn(-c3nc(N4CCOCC4)c4oc(-c5cn[nH]c5)cc4n3)n2)c1: bucket C
18) Cc1cccc(-c2ccn(-c3nc(N4CCOCC4)c4oc(-c5cnc(C)[nH]5)cc4n3)n2)c1: bucket C
19) Cn1ccc(-c2cc3nc(-n4ccc(-c5cccc(Cl)c5)n4)nc(N4CCOCC4)c3o2)n1: bucket B
20) CNC(=O)c1cc2nc(Nc3cc(C(F)(F)F)n[nH]3)nc(N3CCOCC3)c2o1: bucket A
21) Cc1c(-c2ccncc2)oc2c(N3CCOCC3)nc(-n3ccc(-c4ccccc4)n3)nc12: bucket B
22) O=C(c1cc2nc(Nc3cc(-c4ccccc4)n[nH]3)nc(N3CCOCC3)c2o1)N1CCCCC1 [Compound 55, hydrochloride]: bucket B
23) Cc1cccc(-c2cc(Nc3nc(N4CCOCC4)c4oc(-c5ccccn5)cc4n3)[nH]n2)c1: bucket C
24) CN1CCC(c2cc3nc(Nc4cc(-c5ccncc5)n[nH]4)nc(N4CCOCC4)c3o2)C1 (stereo not drawn): bucket A
